Experiment: Solubility and gelling ability with each liquid; critical gelation concentration by sample tube inversion method
Type: physicochemical
Design: key: S: Soluble; I: Insoluble/separation; G: Gel; T: Thickening; EG: Emulsion gel
Details: Ethanol
RECORDED ENDPOINT: solubility and gelling ability

Examples with answers:
CCCCCCCCCCCC(=O)OCCCC(=O)NCCCCCCCC [OBA-L, N-octylbutyramide-4-lauric acid ester] = S
CCCCCCCCCCCC(=O)OCCCC(=O)NCC(CC)CCCC (centres unmarked) = S
CCCCCCCCCCCCNC(=O)CCCOC(=O)CCCCCCCCCCC [LBA-L, N-laurylbutyramide-4-lauric acid ester] = G
CCCCCCCCCCCC(=O)OCCCC(=O)NC1CCCCC1 = S

Proceeding to the next compound to report its solubility and gelling ability.
Ask | Can you look up the measured solubility and gelling ability of CCCCCCCCCCCCCC(=O)OCCCC(=O)NCCCCCCCCCCCC [LBA-M, N-laurylbutyramide-4-myristic acid ester] for me?
Reply | G
